Entry source: ChEMBL document CHEMBL4619801

# ASSAY_PROCEDURE: Drug level in CD1 mouse liver at 20 mg/kg, po dosed as single administration measured after 8 hrs
# Type: ADME, organism-based
# RECORDED_CONDITIONS: read-out: Drug uptake
ENDPOINT_NAME: concentration at 8 h (ng/g)
Express your answer in ng/g, writing the number without its unit.

Problem: concentration at 8 h for N#Cc1ccc(Cn2nc(-c3cc(Cl)c(NCC(O)CO)nc3F)c3ccccc3c2=O)cc1 (stereo unspecified) ?
Solution: 5950

###

# ASSAY_PROCEDURE: Oral bioavailability in Sprague-Dawley rat at 20 mg/kg dosed as single administration
# Format: ADME, organism-based
# RECORDED_CONDITIONS: in vivo
ENDPOINT_NAME: bioavailability (%)
Numeric answer only, unit % assumed.

Problem: // query bioavailability value for entry "Cc1cc(-c2ccc(F)nc2F)nn(Cc2ccc(Cl)cc2)c1=O"
Solution: 25.3

###

# ASSAY_PROCEDURE: Drug metabolism in human liver microsomes at 3 uM in presence of NADPH incubated for 60 mins by UPLC-UV/QTOF MS analysis relative to control
# Format: ADME, Microsome
# RECORDED_CONDITIONS: read-out: Drug metabolism
ENDPOINT_NAME: metabolised at 1 h, 3 µM (%)
Answer format: numeric, % implied, no suffix.

Problem: metabolised at 1 h, 3 µM lookup needed for "Cc1cc(-c2ccc(F)nc2F)nn(Cc2ccc(Cl)cc2)c1=O" , thanks.
Solution: 34

###

# Test system: mouse (Mus musculus)
# ASSAY_PROCEDURE: AUC (0 to infinity) in mouse at 20 mg/kg, po dosed as single administration
# RECORDED_CONDITIONS: in vivo
I'd be grateful if you could share measured AUC(0-inf) for these entries.
# unit: ng·h/mL | format: bare number

Problem: Look up AUC(0-inf) for this compound: "COCCNc1nc(F)c(-c2nn(Cc3ccc(C#N)cc3)c(=O)c3ccccc23)cc1Cl"
Solution: 850

Problem: For the compound "N#Cc1ccc(Cn2nc(-c3cc(Cl)c(NCCO)nc3F)c3ccccc3c2=O)cc1" , what AUC(0-inf) is on record?
Solution: 171

Problem: I'd like to know its AUC(0-inf). The compound in question is N#Cc1ccc(Cn2nc(-c3cc(Cl)c(NCC(O)CO)nc3F)c3ccccc3c2=O)cc1 (stereo not drawn)
Solution: 49800

###

# ASSAY_PROCEDURE: AUC (0 to t) in Sprague-Dawley rat at 2 mg/kg, iv dosed as single administration
# Assay type: ADME, organism-based
# RECORDED_CONDITIONS: in vivo
ENDPOINT_NAME: AUC(0-t) (ng·h/mL)
Reply numerically in ng·h/mL, unit not repeated.

Problem: Fill in the blank: the reported AUC(0-t) of "Cc1cc(-c2ccc(F)nc2F)nn(Cc2ccc(Cl)cc2)c1=O" is ____.
Solution: 428

###

# ASSAY_PROCEDURE: Cytotoxicity in human HepG2.2.15 cells assessed as reduction in cell viability incubated for 8 days by MTT assay
# Assay type: cell-based, HepG2 2.2.15
Hi there, I'd appreciate the recorded CC50 at 192 h for every entry that follows.
A number alone suffices; assume µM.

Problem: Query (compound): "Cc1cc(-c2ccc(F)nc2F)nn(Cc2ccc(Cl)cc2)c1=O" ; field requested: CC50 at 192 h
Solution: 83.8

Problem: I am curious: what CC50 at 192 h value has been reported for "COc1cc(-c2ccc(F)nc2F)nn(Cc2ccc(Cl)cc2)c1=O" ?
Solution: 92.2
